Ref: patent US7109222B2

# measuredOn: hPPARα (Homo sapiens)
# Sequence (Q07869 200-468 limits assumed): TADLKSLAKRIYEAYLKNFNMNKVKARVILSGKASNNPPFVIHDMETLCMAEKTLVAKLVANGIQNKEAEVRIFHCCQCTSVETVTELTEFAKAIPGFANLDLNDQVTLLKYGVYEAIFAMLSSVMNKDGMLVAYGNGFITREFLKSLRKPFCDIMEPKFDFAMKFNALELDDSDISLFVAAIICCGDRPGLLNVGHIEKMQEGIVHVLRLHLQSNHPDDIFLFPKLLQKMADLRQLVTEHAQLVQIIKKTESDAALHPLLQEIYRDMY
# testProtocol: Test A: transient transfection assay in HepG2 cells, Gal4-PPAR chimeric receptor, luciferase reporter (hPPARα)
# conditionDescription: HepG2 cells transfected with hPPARα chimeric receptor; 24 hours incubation; compound 50 μM to 50 pM; read-out: Hep G2-hα EC50
pEC50: −log10 of the molar value.
Give 1 when the value for pEC50 is at least 6. Give 0 when it is less.

• Cc1nc(-c2ccc(C(F)(F)F)cc2)sc1CSc1ccc2c(c1)CC(CC(=O)O)C2 (centres unmarked) = 0
• Cc1nc(-c2ccc(C(F)(F)F)cc2)sc1CSc1ccc2c(c1)CCCN2CC(=O)O = 0
• Cc1nc(-c2ccc(C(F)(F)F)cc2)sc1COc1ccc2c(CC(=O)O)csc2c1 = 1
• Cc1nc(-c2ccc(C(F)(F)F)cc2)sc1CSc1ccc2c(c1)CC(CC(=O)O)CO2 (centres unmarked) = 0
• Cc1nc(-c2ccc(C(F)(F)F)cc2)sc1CSc1ccc2oc(C(=O)O)cc2c1 = 0
• Cc1nc(-c2ccc(C(F)(F)F)cc2)sc1CSc1ccc2c(c1)CC(C(=O)O)CO2 (centres unmarked) = 0
